Test system: NCI/ADR-RES
assay comment: NCI tumour cell line growth inhibition, 48 h
Activity calls are given as the source filed them. No stated cut-off is given here; in the data, active = GI50 up to about 1.1 µM and inactive = higher.
outcome measure: GI50

Some compounds with recorded GI50:
compound	outcome measure	result
CCC(=O)N1NC(=O)C(CC)(CC)C1=O	GI50	> 100 µM (inactive)
CCOC(C[Se]CC(OCC)OCC)OCC	GI50	50.9 µM (inactive)
O=C(O)C1CCCN1C(=O)c1cc(Cl)ccn1 (stereo not given)	GI50	> 100 µM (inactive)
N#Cc1c(Cl)c2cc([N+](=O)[O-])ccc2n2c1nc1ccccc12	GI50	5.07 µM (inactive)

Read the next record carefully.
**Q:** For the compound shown here, [N-]=[N+]=C(C(=O)CN1CCCC1=O)S(=O)(=O)c1ccccc1 , give the reported GI50.
**A:** > 100 µM (inactive)

---

System: SF-268
assay comment: NCI tumour cell line growth inhibition, 48 h
The source made the active and inactive calls. Cut-off read from the data, not from the text of the source: active = GI50 up to about 1.1 µM and inactive = higher.
Write down the outcome that applies. Available outcomes: TRUE for active, FALSE for inactive

molecule	category label
O=C1OCC2(CO1)CC1C=CC2C1 (configuration not stated)	FALSE
Cc1cn(C2CC3C(COCN3O)O2)c(=O)[nH]c1=O (configuration not stated)	FALSE

**Q:** Test call for this molecule, please: Cn1nc2ccc([N+](=O)[O-])c(Cn3nnc4ccccc43)c2n1
**A:** FALSE

**Q:** Test call for this molecule, please: CCC(=O)N1NC(=O)C(CC)(CC)C1=O
**A:** FALSE

**Q:** Test call for this molecule, please: CC/C(CC(=O)CCC(=O)Nc1c(C)cccc1C)=N\NC(=O)NN
**A:** FALSE

**Q:** Test call for this molecule, please: CC(C)C(NCc1c2ccccc2[n+](C)c2ccccc12)C(=O)O (configuration not stated)
**A:** FALSE

**Q:** Test call for this molecule, please: CC(C)OC(=O)NNc1c(Cl)cc(Cl)cc1Cl
**A:** FALSE

**Q:** Test call for this molecule, please: Brc1ccc(-c2[nH]c3ccccc3c2/C=N\Nc2ccc(-c3nc4ccccc4[nH]3)cc2)cc1
**A:** TRUE

---

Tested on: ACHN
assay comment: NCI tumour cell line growth inhibition, 48 h
The source made the active and inactive calls. Rule as the data show it: active = GI50 up to about 1.1 µM and inactive = higher.
outcome measure: GI50

compound	GI50
[O-][S+](Cc1cnc2ccccc2c1)c1nc2ccccc2nc1-c1cccs1 (configuration not stated)	13.6 µM (inactive)
COc1c(OC)c(O)c2c(=O)c(OC)c(-c3ccc4c(c3)OCO4)oc2c1O	> 100 µM (inactive)
CC1CCCc2c(C#N)c(N)nc(-c3ccc(Cl)cc3)c21 (configuration not stated)	17.6 µM (inactive)
COc1ccc2c(c1)CN1C(=N2)CSC1c1cc([N+](=O)[O-])ccc1Cl (configuration not stated)	44.7 µM (inactive)
C=CCN1C(=O)CS/C1=N\NC(=O)c1c(C)nc2sccn12	> 100 µM (inactive)

Read the next record carefully.
**Q:** For the compound shown here, COc1ccc(NC(=O)/C(=N/NC(N)=S)C2C(=O)NC(=S)NC2=O)c(OC)c1 , give the reported GI50.
**A:** > 100 µM (inactive)

---

Test system: SK-OV-3
assay comment: NCI tumour cell line growth inhibition, 48 h
The source made the active and inactive calls. Rule as the data show it: active = GI50 up to about 1.1 µM and inactive = higher.
Collected GI50 values appear next to each entry.

Some compounds with recorded GI50:
compound	result
Clc1ccc2c(c1)[nH]c1c2nc2sccn21	> 100 µM (inactive)
CCCn1c2c(c3ccccc3c1=O)C(=O)c1ccccc1-2	> 100 µM (inactive)
C[C@]12CC[C@@H]3c4ccc(O)cc4CC[C@H]3[C@@H]1C/C(=C\c1ccncc1)[C@@H]2O	26.2 µM (inactive)
O=[N+]([O-])c1ccc(Cl)cc1/C=N/C12CC3CC(CC(C3)C1)C2	> 100 µM (inactive)

**Q:** For the compound shown here, CSCCC(NC(=O)Cc1ccc(C(=O)c2ccccc2)cc1)C(=O)N1CCN(CCCCN2c3ccccc3Sc3cc(N=[N+]=[N-])ccc32)CC1 (stereo not drawn) , give the reported GI50.
**A:** > 100 µM (inactive)

**Q:** For the compound shown here, CC(C)C(NCc1c2ccccc2[n+](C)c2ccccc12)C(=O)O (stereo not drawn) , give the reported GI50.
**A:** 15.5 µM (inactive)

**Q:** For the compound shown here, O=C(NC(=O)c1cc(-c2ccccc2)n[nH]1)c1ccccc1 , give the reported GI50.
**A:** > 100 µM (inactive)

**Q:** For the compound shown here, O=S(=O)(SC1=NCCN1)c1ccc2ccccc2c1 , give the reported GI50.
**A:** 22.6 µM (inactive)

**Q:** For the compound shown here, C=CCOc1ccccc1/N=N/C(C#N)=N\Nc1ccccc1OCC=C , give the reported GI50.
**A:** > 100 µM (inactive)

**Q:** For the compound shown here, Cc1cc(C)c(S(=O)(=O)N(CCCN)OCCON(CCCN)S(=O)(=O)c2c(C)cc(C)cc2C)c(C)c1 , give the reported GI50.
**A:** 5.01 µM (inactive)

**Q:** For the compound shown here, Cc1c2c(cc3c1[nH]c1ccccc13)C(c1ccc(F)cc1)=NCC2 , give the reported GI50.
**A:** 1.37 µM (inactive)

**Q:** For the compound shown here, C=CCN1C(=O)C=C(c2ccccc2)n2ncc3cccc1c32 , give the reported GI50.
**A:** > 100 µM (inactive)

**Q:** For the compound shown here, [N-]=[N+]=CC(=O)OCC1NC(=O)C(COC(=O)C=[N+]=[N-])NC1=O (stereo not drawn) , give the reported GI50.
**A:** > 100 µM (inactive)

---

Test system: CAKI-1
assay comment: NCI tumour cell line growth inhibition, 48 h
The source made the active and inactive calls. Cut-off read from the data, not from the text of the source: active = GI50 up to about 1.1 µM and inactive = higher.
Collected GI50 values appear next to each entry.

Some molecules with recorded GI50:
molecule	GI50
COc1cccc2c1C(=O)OC2c1cccc2ccccc12 (centres undefined)	> 100 µM (inactive)
CC(C)N(C(=O)C1(C)CC1)C(C)C	> 100 µM (inactive)
CC(C)(C)OC(=O)NCCC1CN(C(=O)c2ccccc2)c2ccccc21 (centres undefined)	36 µM (inactive)
CC1=C[C@]2(CC(C)C3C(CC4(C)C5CCC6C(C)(C)C(=O)CC[C@@]67C[C@@]57CC[C@]34C)O2)OC1=O (some centres undefined)	16.9 µM (inactive)
Cn1c2c(c3ccccc31)C1C(=O)N(c3ccccc3)C(=O)C1CC2 (centres undefined)	> 303 µM (inactive)

**Q:** For the molecule shown here, CCc1cc2c(cc1CCCC(=O)O)CC1(Cc3ccc(C(=O)O)cc3C1)C2 (centres undefined) , give the reported GI50.
**A:** > 100 µM (inactive)

**Q:** For the molecule shown here, CC(C)C1CC[C@H](C)C[C@@H]1OC(=O)C(C(=O)O[C@H]1C[C@@H](C)CCC1C(C)C)C(O)[C@@H]1OC(C)(C)O[C@H]1C1COC(C)(C)O1 (some centres undefined) , give the reported GI50.
**A:** 16.3 µM (inactive)

**Q:** For the molecule shown here, NC(=O)NC(=O)C1CCC(=O)N1S(=O)(=O)c1ccc(Cl)cc1 (centres undefined) , give the reported GI50.
**A:** > 100 µM (inactive)

**Q:** For the molecule shown here, Cc1ccc([N+](=O)[O-])cc1NC(=O)c1cccc([N+](=O)[O-])c1O , give the reported GI50.
**A:** 17.8 µM (inactive)

**Q:** For the molecule shown here, COC1CC(N)(c2ccccc2)C(O)C(C)O1 (centres undefined) , give the reported GI50.
**A:** > 100 µM (inactive)

---

System: Hs-578T
assay comment: NCI tumour cell line growth inhibition, 48 h
Calls of active or inactive are those of the source. No stated cut-off is given here; in the data, active = GI50 up to about 1.1 µM and inactive = higher.
Write down the outcome that applies. Available outcomes: TRUE for active, FALSE for inactive

molecule	measured target	category label
COc1cc(-c2c3c(cc4c2OCO4)[C@@H](Nc2ccc(-c4ccc(-c5ccc(N[C@@H]6c7cc8c(cc7C(c7cc(OC)c(O)c(OC)c7)[C@H]7C(=O)OC[C@H]67)OCO8)cc5)cc4)cc2)[C@H]2COC(=O)[C@@H]2C3)cc(OC)c1O (stereo partly drawn)	Hs-578T	FALSE
N#CC1Cc2cc3c(cc21)OCO3 (stereo not drawn)	Hs-578T	FALSE
O=C(C[N+]1(c2ccccc2)CCOCC1)c1ccccc1	Hs-578T	FALSE

Shift focus to the following entry.
**Q:** Test call for this molecule, please: c1ccc2c(NCCCCCCCCNc3c4ccccc4nc4ccccc34)c3ccccc3nc2c1
**A:** TRUE

---

Tested on: HL-60
assay comment: NCI tumour cell line growth inhibition, 48 h
Activity calls are given as the source filed them. Rule as the data show it: active = GI50 up to about 1.1 µM and inactive = higher.
Write down the outcome that applies. Available outcomes: 1 for active, -1 for inactive

compound	category label
COc1cccc2nc3cc(C)c(C)cc3nc12	-1
COc1ccc2c(c1)c(=O)c1c(NCCCN(C)C)ccc3ncn2c31	-1
O=C(c1ccccn1)c1nnn2ccccc12	-1
Cn1nc2ccc([N+](=O)[O-])c(Cn3nnc4ccccc43)c2n1	-1
CC(=O)NNc1nc(-c2ccc([N+](=O)[O-])cc2)c(C#N)c(=O)n1C	-1
CN(C)C(=O)Nc1c([N+](=O)[O-])cc(C(F)(F)F)cc1[N+](=O)[O-]	-1

**Q:** Test call for this compound, please: CC1=C(C(=O)Nc2cc(F)c(F)cc2F)C(c2ccc(N(C)C)cc2)C(C(=O)Nc2cc(F)c(F)cc2F)=C(C)N1
**A:** -1

**Q:** Test call for this compound, please: CC(=O)OC1C(O)C(C)OC(OC2C(OC(=O)C3CCC4C(C3)OC3(CC(OC(=O)/C=C/c5ccccc5)C(C)CO3)C43CO3)OC(C)C(O)C2OC(C)=O)C1O (stereo not given)
**A:** 1

**Q:** Test call for this compound, please: O=C1/C(=C/c2ccncc2)C(n2cccc2)c2c(Br)sc(Br)c21 (stereo not given)
**A:** -1

**Q:** Test call for this compound, please: CC(/C=N/N=C(N)N)=N\N=C(N)N
**A:** -1

**Q:** Test call for this compound, please: CCCCCCCCCC[C@H](O)[C@H]1CC[C@@H]([C@@H](O)CC[C@H](O)[C@@H]2CCC(CCCCCCC[C@@H](O)CC3=C[C@H](C)OC3=O)O2)O1 (stereo not given in full)
**A:** -1

**Q:** Test call for this compound, please: CC(NC1=NCCO1)c1cccc([N+](=O)[O-])c1 (stereo not given)
**A:** -1

**Q:** Test call for this compound, please: CCOC(=O)c1c(-c2ccc(Cl)cc2)c(C#N)c(=S)n(C2OC(COC(C)=O)C(OC(C)=O)C(OC(C)=O)C2OC(C)=O)c1-c1ccccc1 (stereo not given)
**A:** -1

**Q:** Test call for this compound, please: CCN(CC)CCOC(=O)c1ccc(N)cc1.CCOC(=O)Nc1ccc(S(=O)(=O)OC)cc1.CCOC(=O)Nc1ccc(S(=O)(=O)OC)cc1.Nc1ccc(C(=O)O)c(O)c1
**A:** -1

**Q:** Test call for this compound, please: CO/C(N)=C(C#N)/N=C/c1ccco1
**A:** -1

**Q:** Test call for this compound, please: COc1cc(S(=O)(=O)Nc2ccc(-c3csc(N)n3)cc2)ccc1Cl
**A:** -1

**Q:** Test call for this compound, please: CSc1nc2c(nc(N)n2C2OC(CO)C(O)C(O)C2O)c(=O)n1C (stereo not given)
**A:** -1

**Q:** Test call for this compound, please: CC(=O)c1ccc(Nc2c3c(nc4ccccc24)CCCC3)cc1
**A:** -1

**Q:** Test call for this compound, please: COC(=O)C1=C(C)NC(C)=C(C(=O)OC)C1c1ccc(N=O)cc1
**A:** -1

**Q:** Test call for this compound, please: Cc1ccc([N+](=O)[O-])cc1NC(=O)c1cccc([N+](=O)[O-])c1O
**A:** -1

**Q:** Test call for this compound, please: COc1ccc(-c2cn3c(nc4ccccc43)c(C)n2)cc1
**A:** -1

**Q:** Test call for this compound, please: O=C1c2ccccc2C(=O)[C@@]23O[C@@]12C1(Oc2cccc4cccc(c24)O1)[C@@H]1O[C@@H]1[C@@H]3O
**A:** -1

**Q:** Test call for this compound, please: [N-]=[N+]=CC(=O)OCC1NC(=O)C(COC(=O)C=[N+]=[N-])NC1=O (stereo not given)
**A:** -1

**Q:** Test call for this compound, please: O=[N+]([O-])c1ccc(Cl)cc1/C=N/C12CC3CC(CC(C3)C1)C2
**A:** -1

**Q:** Test call for this compound, please: O=C1OCC2(CO1)CC1C=CC2C1 (stereo not given)
**A:** -1

**Q:** Test call for this compound, please: N#C/C(C(=O)CCl)=C1\Nc2ccccc2O1
**A:** -1

**Q:** Test call for this compound, please: COc1cccc2c1C(=O)OC2c1cccc2ccccc12 (stereo not given)
**A:** -1

**Q:** Test call for this compound, please: CN1CCCN(C)C1c1cc([N+](=O)[O-])ccc1O
**A:** -1
